Hey, just so you know, these numbers are from the Bradley open melting point set (2014).

measuredQuantity: melting point (°C)
Write down the numeric answer in °C and omit the unit.

Prompt line: Please report the recorded melting point for `Brc1cscc1Br` .
Response line: 5

Prompt line: Thanks! And O=C(O)c1cccc(CO)c1 [m-hydroxymethyl_benzoic_acid] ?
Response line: 115

Prompt line: Now this one: CC(=O)Nc1ccccc1NNc1ccccc1 [N-[2-(2-phenylhydrazino)phenyl]acetamide]
Response line: 168

Prompt line: Also, CC(=O)Nc1cc(C)ccc1O [2'-hydroxy-5'-methylacetanilide] please.
Response line: 149

Prompt line: One more compound: Cc1noc(NS(=O)(=O)c2ccc(N)cc2)c1C [Sulfisoxazole]
Response line: 194

Prompt line: Would you kindly repeat that for `CC(C)C(C)C(C)C` ?
Response line: -109

Prompt line: Then what about the compound `Brc1ccccc1-c1nnn[nH]1` ?
Response line: 182

Prompt line: And the next one, `Oc1ccc(Cl)cc1Cc1cc(Cl)ccc1O` ?
Response line: 170

Prompt line: Next record, please: `CC(C)c1cccc(C(C)C)c1N`
Response line: -54

Prompt line: Then what about the compound O=C(O)CC(O)C(=O)O (racemic) ?
Response line: 132

Prompt line: Same question for O=C(O)c1ccc2c(c1)C(=O)OC2=O [1,2,4-benzenetricarboxylic anhydride] please.
Response line: 167

Prompt line: Now give it for CCN(CC)CCNC(=O)c1cc(Cl)c(N)cc1OC [metoclopramide] too.
Response line: 147

Prompt line: Record: `ClC(Cl)(Cl)c1ccccc1`
Response line: -5

Prompt line: Can you handle `CCCCCCCCBr` next?
Response line: -55

Prompt line: And the next one, `On1nnc2ccccc21` ?
Response line: 159

Prompt line: // same read-out, input: Nc1ccc(I)cc1 [4-Iodoaniline]
Response line: 61

Prompt line: Thanks! And `O=C(O)c1ccccc1Nc1ccccc1` ?
Response line: 187

Prompt line: Also `CCOC(=O)c1c(SC)n[nH]c1N` ?
Response line: 143

Prompt line: And for ClCc1ccccc1Cl [2-chlorobenzyl chloride] ?
Response line: -13

Prompt line: Again, but for CCCCC(C)CC(O)C=CC1C(O)CC(=O)C1CCCCC=CC(=O)O (centres undefined)
Response line: 97

Prompt line: Also check `Nc1c(Br)cc(Br)c(Cl)c1Cl`
Response line: 97

Prompt line: Also check C=CCc1cc(OC)c(O)c(C(=O)NCCO)c1 [alibendol]
Response line: 95

Prompt line: Same for `CCOP(O)OCC`
Response line: -70

Prompt line: Same for CC(=O)Oc1ccccc1C(=O)O [2-Acetoxybenzoic acid]
Response line: 139

Prompt line: Try this compound next: `NC(=S)Nc1cccc2ccccc12`
Response line: 188

Prompt line: What about this compound? `Oc1cccc(Cl)c1Cl`
Response line: 59

Prompt line: Also CCN(C)C [N,N-Dimethylethanamine] , if possible.
Response line: -140

Prompt line: Now the compound `ClC5(Cl)[C@]3(Cl)C(\Cl)=C(\Cl)[C@@]5(Cl)[C@H]4[C@H]1C[C@H]([C@@H]2O[C@H]12)[C@@H]34`
Response line: 175

Prompt line: Can you check `CC(=O)CC(C)C` next?
Response line: -84

Prompt line: Another compound to check: CCCCCCCCCCC(=O)O [undecanoic acid]
Response line: 28.6

Prompt line: Try the compound N#CC(CCc1ccc(Cl)cc1)(Cn1cncn1)c1ccccc1 (centres undefined)
Response line: 125

Prompt line: Further, for `CB(O)O` ?
Response line: 92

Prompt line: Can you check `c1ccc2c(c1)Cc1ccccc1-2` next?
Response line: 116

Prompt line: Proceed to CCOCCO [2-Ethoxyethanol]
Response line: -90

Prompt line: And what about the compound O=C(O)C(F)c1ccccc1 (centres undefined) ?
Response line: 80

Prompt line: Now consider CC(C)N(C=O)C(C)C [N,N-diisopropylformamide] .
Response line: 10

Prompt line: Ok, now `N=C(N)NCCC[C@H](N)C(=O)O`
Response line: 221

Prompt line: // query: `O=C(O)Cc1c(Cl)cccc1Cl`
Response line: 160

Prompt line: Let us now turn to CC(=O)OC1CCC2(C)C(C1)CC1(OCCO1)C1C2CCC2(C)C1CCC21OCCO1 (centres undefined)
Response line: 208

Prompt line: Next compound: `O=C(O)COCCNC(=O)C12CC3CC(CC(C3)C1)C2`
Response line: 122

Prompt line: Same read-out for CCCCCCCCCC(C)O (centres undefined) ?
Response line: 2

Prompt line: Now this one: Cc1ccc(S(=O)(=O)NC2CCCCC2)cc1 [N-cyclohexyl-p-toluenesulfonamide]
Response line: 88

Prompt line: Again, but for Nc1ccc(Br)cc1 [4-Bromoaniline]
Response line: 64

Prompt line: Now consider `CCOC(=O)c1sc2sc(C#N)c(N)c2c1N` .
Response line: 262
